# System: PBMCs
# EXPERIMENT: Cell viability by trypan blue staining after 24 hours
# Type: cell-based, human
# STUDY_CONDITIONS: study participant 152
# Experimental: Figure 1 Screening of candidate LPAs by measuring the change in multiply spliced HIV transcripts after activation. Each drug was tested in PBMCs from 2 ART-suppressed study participants (denoted in the legend by varying symbol shapes). […] (A) After 24 hours, the viability was measured by trypan blue staining and then normalized to the levels of the activated DMSO (% of activated DMSO). […] For quantification of cell-associated HIV transcripts, PBMCs were harvested either after 24 hours or after 6 days. […]
List of Viability (Fig 1A) values.

Solved entries (count: 5):
COMPOUND: COc1ccc(-c2cc(=O)c3c(O)cc(O)c(-c4cc(-c5cc(=O)c6c(O)cc(O)cc6o5)ccc4OC)c3o2)cc1
Viability (Fig 1A): 84.74 % of activated DMSO
--
COMPOUND: CC(=O)N[C@@H]1CCC[C@H](C(=O)Nc2cc(-c3cnn4c3CC(C)(C)C4)c(Cl)cn2)C1
Viability (Fig 1A): 97.45 % of activated DMSO
--
COMPOUND: CN[C@@H]1C[C@H]2O[C@@](C)([C@@H]1OC)n1c3ccccc3c3c4c(c5c6ccccc6n2c5c31)C(=O)NC4
Viability (Fig 1A): 100.37 % of activated DMSO
--
COMPOUND: Nc1ncnc2c1ncn2[C@@H]1O[C@H](CO)C[C@H]1O [cordycepin]
Viability (Fig 1A): 92.02 % of activated DMSO
--
COMPOUND: CCc1cnn2c(NCc3ccc[n+]([O-])c3)cc(N3CCCC[C@H]3CCO)nc12
Viability (Fig 1A): 99.43 % of activated DMSO

Next compound, please.
Test system PBMCs; read-out Viability (Fig 1A); what value for C[C@H]1O[C@@H](O[C@H]2[C@@H](O)C[C@H](O[C@H]3[C@@H](O)C[C@H](O[C@H]4CC[C@@]5(C)[C@H](CC[C@@H]6[C@@H]5C[C@@H](O)[C@]5(C)[C@@H](C7=CC(=O)OC7)CC[C@]65O)C4)O[C@@H]3C)O[C@@H]2C)C[C@H](O)[C@@H]1O ?
105.27 % of activated DMSO

Source: paper PMC11466185
